# Tested on: Mycobacterium tuberculosis CRY-23
Endpoint Label: MIC (REMA) (mg/L)

# Molecule, Units Text, Modifier, Observed
rows = [
    ("COc1nc2ccc(Br)cc2cc1[C@@H](c1ccccc1)[C@@](O)(CCN(C)C)c1cccc2ccccc12 [Bedaquiline]", "mg/L", "=", 0.008),
    ("COc1c(N2C[C@@H]3CCCN[C@@H]3C2)c(F)cc2c(=O)c(C(=O)O)cn(C3CC3)c12 [Moxifloxacin]", "mg/L", "=", 0.03),
    ("C[C@]1(COc2ccc(N3CCC(Oc4ccc(OC(F)(F)F)cc4)CC3)cc2)Cn2cc([N+](=O)[O-])nc2O1 [Delamanid]", "mg/L", "=", 0.03),
    ("CC[C@@H](CO)NCCN[C@@H](CC)CO [Ethambutol]", "mg/L", "=", 1),
    ("NNC(=O)c1ccncc1 [Isoniazid]", "mg/L", ">", 8),
]

====

# Test system: Mycobacterium tuberculosis CRY-12; CRY-24

# Structure Smiles, MIC (REMA) [µg/mL]
measured = [
    ("COc1nc2ccc(Br)cc2cc1[C@@H](c1ccccc1)[C@@](O)(CCN(C)C)c1cccc2ccccc12", 0.5),
    ("C[C@H]1COc2c(N3CCN(C)CC3)c(F)cc3c(=O)c(C(=O)O)cn1c23", 0.25),
    ("CC[C@@H](CO)NCCN[C@@H](CC)CO", 1),
    ("C[C@]1(COc2ccc(N3CCC(Oc4ccc(OC(F)(F)F)cc4)CC3)cc2)Cn2cc([N+](=O)[O-])nc2O1", 0.03),
]

====

Target or system Mycobacterium tuberculosis CRY-7; CRY-18; recorded quantity MIC (REMA).

# Structure Smiles, Units Text, Modifier, MIC (REMA)
records = [
    ("C[C@]1(COc2ccc(N3CCC(Oc4ccc(OC(F)(F)F)cc4)CC3)cc2)Cn2cc([N+](=O)[O-])nc2O1", "µg/mL", "=", 0.06),
    ("NNC(=O)c1ccncc1", "µg/mL", ">", 8),
    ("CC(=O)NC[C@H]1CN(c2ccc(N3CCOCC3)c(F)c2)C(=O)O1", "µg/mL", "=", 0.25),
    ("CO[C@H]1/C=C/O[C@@]2(C)Oc3c(C)c(O)c4c(c3C2=O)C2=NC3(CCN(CC(C)C)CC3)NC2=C(NC(=O)/C(C)=C\\C=C\\[C@H](C)[C@H](O)[C@@H](C)[C@@H](O)[C@@H](C)[C@H](OC(C)=O)[C@@H]1C)C4=O", "µg/mL", "=", 2),
    ("COc1nc2ccc(Br)cc2cc1[C@@H](c1ccccc1)[C@@](O)(CCN(C)C)c1cccc2ccccc12", "µg/mL", "=", 0.06),
    ("NCC[C@H](O)C(=O)N[C@@H]1C[C@H](N)[C@@H](O[C@H]2O[C@H](CN)[C@@H](O)[C@H](O)[C@H]2O)[C@H](O)[C@H]1O[C@H]1O[C@H](CO)[C@@H](O)[C@H](N)[C@H]1O", "µg/mL", ">", 16),
    ("NC[C@H]1O[C@H](O[C@H]2[C@H](O)[C@@H](O[C@H]3O[C@H](CO)[C@@H](O)[C@H](N)[C@H]3O)[C@H](N)C[C@@H]2N)[C@H](O)[C@@H](O)[C@@H]1O", "µg/mL", ">", 32),
    ("CO[C@H]1/C=C/O[C@@]2(C)Oc3c(C)c(O)c4c(O)c(c(/C=N/N5CCN(C)CC5)c(O)c4c3C2=O)NC(=O)/C(C)=C\\C=C\\[C@H](C)[C@H](O)[C@@H](C)[C@@H](O)[C@@H](C)[C@H](OC(C)=O)[C@@H]1C", "µg/mL", ">", 4),
    ("COc1c(N2C[C@@H]3CCCN[C@@H]3C2)c(F)cc2c(=O)c(C(=O)O)cn(C3CC3)c12", "µg/mL", "=", 0.25),
]
